Test: Drug excretion in human urine treated with [14C]-labeled milnacipran hydrochloride at 100 mg, po after 4 to 8 hrs by HPLC analysis
Assay type: ADME, organism-based
Conditions: in vivo
Attribute: Drug excretion
Write the answer as a number in %, unit excluded.

>  <compound>
CCN(CC)C(=O)C1(c2ccccc2)CC1CN (racemic) [MILNACIPRAN]

>  <Drug excretion, %>
14.42

$$$$
>  <compound>
CCNC(=O)[C@@]1(c2ccccc2)CC1CN (some centres undefined)

>  <Drug excretion, %>
1.35

$$$$
>  <compound>
CCN(CC)C(=O)[C@@]1(c2ccccc2)C[C@H]1CNC(=O)O[C@@H]1O[C@H](C(=O)O)[C@@H](O)[C@H](O)[C@H]1O

>  <Drug excretion, %>
0.64

$$$$

Q: Drug excretion for `CCN(CC)C(=O)[C@]1(c2ccccc2)C[C@@H]1CNC(=O)O[C@@H]1O[C@H](C(=O)O)[C@@H](O)[C@H](O)[C@H]1O` ?
Result: 5.39

###

Test: Drug excretion in human urine treated with [14C]-labeled milnacipran hydrochloride at 100 mg, po after 24 to 48 hrs by HPLC analysis
Assay type: ADME, organism-based
Details: in vivo
readout_name: Drug excretion (%)
Write the answer as a number in %, unit excluded.

>  <compound>
CCN(CC)C(=O)[C@]1(c2ccccc2)C[C@@H]1CNC(=O)O[C@@H]1O[C@H](C(=O)O)[C@@H](O)[C@H](O)[C@H]1O

>  <readout_units>
%

>  <Drug excretion>
0.76

$$$$
>  <compound>
CCN(CC)C(=O)[C@@]1(c2ccccc2)C[C@H]1CNC(=O)O[C@@H]1O[C@H](C(=O)O)[C@@H](O)[C@H](O)[C@H]1O

>  <readout_units>
%

>  <Drug excretion>
0.28

$$$$
>  <compound>
CCN(CC)C(=O)C1(c2ccccc2)CC1CN (racemic)

>  <readout_units>
%

>  <Drug excretion>
5.45

$$$$

Could you now look at the following compound, please?
Q: Drug excretion for CCNC(=O)[C@@]1(c2ccccc2)CC1CN (some centres undefined) ?
Result: 1.36

###

Test system: Plasma
Test: Plasma concentration in human treated with [14C]-labeled milnacipran hydrochloride at 100 mg, po measured at 12 hrs by HPLC analysis
Type: ADME, organism-based
Conditions: in vivo
readout_name: Cp (ng.Eq/ml)
Write the answer as a number in ng.Eq/ml, unit excluded.

>  <molecule>
CCN(CC)C(=O)C1(c2ccccc2)CC1CN (racemic) [MILNACIPRAN]

>  <test_value>
87.22

$$$$
>  <molecule>
CCNC(=O)[C@@]1(c2ccccc2)CC1CN (some centres undefined)

>  <test_value>
13.67

$$$$

Could you now look at the following molecule, please?
Q: Cp for `CCN(CC)C(=O)[C@]1(c2ccccc2)C[C@@H]1CNC(=O)O[C@@H]1O[C@H](C(=O)O)[C@@H](O)[C@H](O)[C@H]1O` ?
Result: 50.79

###

Test: Drug excretion in mouse urine at 100 mg/kg, po
Assay type: ADME, organism-based
Set-up: dose 100 mg/kg, route oral
Details: read-out: Drug excretion
readout_name: dose excreted
A complete answer gives the number and then names the unit.

>  <molecule>
CCN(CC)C(=O)C1(c2ccccc2)CC1CNC(=O)O[C@@H]1O[C@H](C(=O)O)[C@@H](O)[C@H](O)[C@H]1O (some centres not stated)

>  <dose excreted>
1%

$$$$

Q: dose excreted for CCN(CC)[14C](=O)C1(c2ccccc2)CC1CN.Cl (configuration not stated) ?
Result: 63%
